Molecular target: KDR (phospho-KDR, VEGF165-stimulated HUVEC cells) (Homo sapiens (Human))
Sequence (P35968 20-1356): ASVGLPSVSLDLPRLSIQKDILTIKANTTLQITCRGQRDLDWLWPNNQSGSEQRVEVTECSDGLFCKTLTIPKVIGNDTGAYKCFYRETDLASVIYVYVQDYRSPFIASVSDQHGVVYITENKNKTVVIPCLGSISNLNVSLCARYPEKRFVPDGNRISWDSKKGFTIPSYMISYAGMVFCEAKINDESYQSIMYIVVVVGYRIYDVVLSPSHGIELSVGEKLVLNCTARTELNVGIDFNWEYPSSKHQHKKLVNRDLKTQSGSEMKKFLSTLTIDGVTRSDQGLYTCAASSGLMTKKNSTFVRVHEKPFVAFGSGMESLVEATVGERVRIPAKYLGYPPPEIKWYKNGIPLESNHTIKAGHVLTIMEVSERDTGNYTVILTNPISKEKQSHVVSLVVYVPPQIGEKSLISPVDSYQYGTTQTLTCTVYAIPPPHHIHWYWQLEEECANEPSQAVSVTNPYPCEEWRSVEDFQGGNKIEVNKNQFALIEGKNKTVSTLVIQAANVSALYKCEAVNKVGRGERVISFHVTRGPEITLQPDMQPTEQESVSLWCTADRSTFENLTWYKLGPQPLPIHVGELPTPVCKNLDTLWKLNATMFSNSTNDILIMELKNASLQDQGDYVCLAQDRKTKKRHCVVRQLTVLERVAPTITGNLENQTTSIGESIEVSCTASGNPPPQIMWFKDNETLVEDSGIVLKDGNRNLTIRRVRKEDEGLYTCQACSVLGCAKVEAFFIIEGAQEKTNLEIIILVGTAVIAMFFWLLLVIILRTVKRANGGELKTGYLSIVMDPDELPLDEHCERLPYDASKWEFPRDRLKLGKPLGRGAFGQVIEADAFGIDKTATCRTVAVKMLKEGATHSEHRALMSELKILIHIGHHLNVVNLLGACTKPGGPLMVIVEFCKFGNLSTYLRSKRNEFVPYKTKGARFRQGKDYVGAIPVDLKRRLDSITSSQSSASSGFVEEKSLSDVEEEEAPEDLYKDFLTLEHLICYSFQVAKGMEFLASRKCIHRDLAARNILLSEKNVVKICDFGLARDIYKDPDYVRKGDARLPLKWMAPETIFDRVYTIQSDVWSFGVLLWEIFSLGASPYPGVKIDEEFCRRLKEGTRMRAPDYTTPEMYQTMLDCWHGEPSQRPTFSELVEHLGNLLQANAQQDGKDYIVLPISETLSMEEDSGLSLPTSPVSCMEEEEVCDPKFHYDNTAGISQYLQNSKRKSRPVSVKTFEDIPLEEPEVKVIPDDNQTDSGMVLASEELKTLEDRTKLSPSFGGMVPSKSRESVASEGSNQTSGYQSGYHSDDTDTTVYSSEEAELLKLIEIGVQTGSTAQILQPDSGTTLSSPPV
Assay: KDR autophosphorylation ELISA in HUVEC cells (Example G)
Format: cell-based
Conditions: cellular activity; KDR autophosphorylation ELISA in HUVEC cells
pIC50: −log10 of the molar value.
pIC50 listing for selected compounds.

Use the examples below as a reference point.
# Compound, pIC50
measured = [
    ("COc1cnc2c(Oc3ccc(NC(=O)c4nccn(-c5ccc(F)cc5)c4=O)cc3F)ccnc2c1 [Compound 381]", "< 6.52"),
    ("COc1cnc2c(Oc3ccc(NC(=O)c4c(C)n(CC(F)(F)F)cc(-c5ccc(F)cc5)c4=O)cc3F)ccnc2c1 [Compound 790]", "< 6.52"),
    ("COc1cc2nccc(Oc3ccc(NC(=O)c4cn(C5CC5)c(C)c(-c5ccc(F)cc5C)c4=O)cc3F)c2nc1OC [Compound 439]", "< 6.52"),
    ("COCc1nc(C)c(-c2ccc(F)cc2C)c(O)c1C(=O)Nc1ccc(Oc2ccnc3cc(OC)c(OC)nc23)cc1 [Compound 192]", "> 7.00"),
    ("C=Cc1c(C)c(C(=O)Nc2ccc(Oc3ccnc4cc(OC)cnc34)c(F)c2)c(=O)n(-c2ccc(F)cc2)c1C [Compound 329]", "6.52 to 7.00"),
]

Qu. Lab note: need pIC50 for COCCOc1cc2nccc(Oc3ccc(NC(=O)c4c(C)ccn(-c5ccc(F)cc5)c4=O)cc3)c2nc1OC [Compound 704] on KDR (phospho-KDR, VEGF165-stimulated HUVEC cells) (Homo sapiens (Human)), anyone have it?
Ans. > 7.00

Qu. Lab note: need pIC50 for COc1cc2nccc(Oc3ccc(NC(=O)c4c5n(c(C)c(-c6ccc(F)cc6)c4=O)CCOC5)cc3F)c2nc1OC [Compound 775] on KDR (phospho-KDR, VEGF165-stimulated HUVEC cells) (Homo sapiens (Human)), anyone have it?
Ans. > 7.00

Qu. Lab note: need pIC50 for COc1cc2nccc(Oc3ccc(NC(=O)c4ccnn(-c5ccc(F)cc5C)c4=O)cc3F)c2nc1OC [Compound 527] on KDR (phospho-KDR, VEGF165-stimulated HUVEC cells) (Homo sapiens (Human)), anyone have it?
Ans. > 7.00

Qu. Lab note: need pIC50 for COc1cc2nccc(Oc3ccc(NC(=O)c4cn(C5(C(F)(F)F)CC5)cc(-c5ccc(F)cc5)c4=O)cc3F)c2nc1OC [Compound 59] on KDR (phospho-KDR, VEGF165-stimulated HUVEC cells) (Homo sapiens (Human)), anyone have it?
Ans. < 6.52

Qu. Lab note: need pIC50 for C=C(C)c1cnc2c(Oc3ccc(NC(=O)c4nnc(C)c(-c5ccc(F)cc5)c4OC)cc3F)ccnc2c1 [Compound 478] on KDR (phospho-KDR, VEGF165-stimulated HUVEC cells) (Homo sapiens (Human)), anyone have it?
Ans. > 7.00

Qu. Lab note: need pIC50 for COCc1nc(C)c(-c2ccc(F)cc2C)c(O)c1C(=O)Nc1ccc(Oc2ccnc3ccc(OC)nc23)c(F)c1 [Compound 195] on KDR (phospho-KDR, VEGF165-stimulated HUVEC cells) (Homo sapiens (Human)), anyone have it?
Ans. > 7.00

Qu. Lab note: need pIC50 for COc1cc2nccc(Oc3ccc(NC(=O)c4cnc(C)c(-c5ccc(F)cc5)c4O)cc3)c2nc1OC [Compound 119] on KDR (phospho-KDR, VEGF165-stimulated HUVEC cells) (Homo sapiens (Human)), anyone have it?
Ans. > 7.00

Qu. Lab note: need pIC50 for COc1cnc2c(Oc3ccc(NC(=O)c4nnc(C)c(-c5ccc(F)cc5C)c4O)cc3F)ccnc2c1 (single isomer, unassigned) [Compound 249B] on KDR (phospho-KDR, VEGF165-stimulated HUVEC cells) (Homo sapiens (Human)), anyone have it?
Ans. > 7.00

Qu. Lab note: need pIC50 for COc1cc2nccc(Oc3ccc(NC(=O)c4c(C)ccn(-c5ccc(F)cc5C)c4=O)cc3)c2nc1OC [Compound 332] on KDR (phospho-KDR, VEGF165-stimulated HUVEC cells) (Homo sapiens (Human)), anyone have it?
Ans. > 7.00

====

Biological target: Human KDR (residues 790-1356) (Homo sapiens (Human), UniProt P35968)
Sequence (P35968 790-1356): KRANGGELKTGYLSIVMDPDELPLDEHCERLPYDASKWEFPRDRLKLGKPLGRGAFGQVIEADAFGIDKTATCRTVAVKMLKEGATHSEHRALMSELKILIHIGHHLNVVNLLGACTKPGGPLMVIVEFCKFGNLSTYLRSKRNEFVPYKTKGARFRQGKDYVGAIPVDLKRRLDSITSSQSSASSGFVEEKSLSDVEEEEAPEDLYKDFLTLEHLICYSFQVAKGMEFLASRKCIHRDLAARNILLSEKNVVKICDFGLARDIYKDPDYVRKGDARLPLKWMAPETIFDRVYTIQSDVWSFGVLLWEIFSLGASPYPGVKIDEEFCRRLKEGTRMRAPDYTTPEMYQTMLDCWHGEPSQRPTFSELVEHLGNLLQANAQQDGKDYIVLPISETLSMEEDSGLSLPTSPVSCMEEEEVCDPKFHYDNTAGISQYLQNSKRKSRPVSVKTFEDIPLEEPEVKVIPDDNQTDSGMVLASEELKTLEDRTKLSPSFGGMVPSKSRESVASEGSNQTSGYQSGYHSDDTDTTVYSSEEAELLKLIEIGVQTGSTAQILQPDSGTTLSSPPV
Test: Human KDR kinase assay, HTRF KinEase (Example B-2)
Assay type: biochemical
Details: protocol of Example B-2 (other compounds)
pIC50: −log10 of the molar value.
Result type: pIC50

# Compound, Target or test system, Value observed
data = [
    ("COc1cc2nccc(Oc3ccc(NC(=O)c4cn(CC(F)(F)F)c(C)c(-c5ccc(F)cc5)c4=O)cc3)c2cc1OC [Compound 260]", "Human KDR (residues 790-1356) (Homo sapiens (Human), UniProt P35968)", "< 6.52"),
]

Qu. What measured pIC50 goes with COc1cc2nccc(Oc3ccc(NC(=O)c4cn(C(C)(C)C)c(C)c(-c5ccc(F)cc5)c4=O)cc3F)c2nc1OC [Compound 139] ?
Ans. < 6.52

Qu. What measured pIC50 goes with COc1cc2nccc(Oc3ccc(NC(=O)c4ccc(CO)n(-c5ccc(F)cc5)c4=O)cc3F)c2nc1OC [Compound 357] ?
Ans. > 7.00

Qu. What measured pIC50 goes with COc1ccc2nccc(Oc3ccc(NC(=O)c4cnc(C)n(-c5ccc(F)cc5)c4=O)cc3F)c2n1 [Compound 232] ?
Ans. < 6.52

Qu. What measured pIC50 goes with COc1cnc2c(Oc3ccc(NC(=O)c4cn(C)cc(-c5ccc(F)cc5)c4=O)cc3F)ccnc2c1 [Compound 112] ?
Ans. < 6.52

Qu. What measured pIC50 goes with CCn1cc(C(=O)Nc2ccc(Oc3ccnc4cc(OC)c(OC)nc34)c(F)c2)c(=O)c(-c2ccc(F)cc2C)c1CO [Compound 283] ?
Ans. < 6.52

Qu. What measured pIC50 goes with CCc1cnc2c(Oc3ccc(NC(=O)c4cnc(C)c(-c5ccc(F)cc5)c4O)cc3F)ccnc2c1 [Compound 418] ?
Ans. 6.52 to 7.00

====

Target: Human KDR (residues 790-1356) (Homo sapiens (Human))
Experiment: Human KDR kinase assay, HTRF KinEase (Example B-2)
Type: biochemical
Settings: protocol of Example B-2 (other compounds)
pIC50: −log10 of the molar value.
Result type: pIC50

Use the examples below as a reference point.
# Compound, pIC50
rows = [
    ("COc1cnc2c(Oc3ccc(NC(=O)c4c(C)cc(C)n(-c5ccc(F)cc5)c4=O)cc3)ccnc2c1 [Compound 289]", "> 7.00"),
    ("COc1cc2nccc(Oc3ccc(NC(=O)c4cnc(C)c(-c5ccc(F)cc5)c4O)cc3F)c2nc1Br [Compound 142]", "> 7.00"),
    ("COc1cc2nccc(Oc3ccc(NC(=O)c4c(C)nc(C)n(-c5ccc(F)cc5)c4=O)cc3F)c2nc1OC [Compound 101]", "> 7.00"),
    ("COc1ccc2nccc(Oc3ccc(NC(=O)c4c(C)n(C)cc(-c5ccc(F)cc5)c4=O)cc3F)c2n1 [Compound 243]", "< 6.52"),
]

Qu. What measured pIC50 goes with CCn1cc(C(=O)Nc2ccc(Oc3ccnc4cc(OC)cnc34)cc2)c(=O)c(-c2ccc(F)cc2)c1C [Compound 163] ?
Ans. < 6.52

Qu. What measured pIC50 goes with COc1cc2nccc(Oc3ccc(NC(=O)c4c(C)ncn(-c5ccc(F)cc5)c4=O)cc3F)c2nc1OC [Compound 98] ?
Ans. > 7.00

Qu. What measured pIC50 goes with COc1cnc2c(Oc3ccc(NC(=O)c4c(C)ncn(-c5ccc(F)cc5)c4=O)cc3F)ccnc2c1 [Compound 256] ?
Ans. 6.52 to 7.00

Qu. What measured pIC50 goes with COc1cc2nccc(Oc3ccc(NC(=O)c4c(C)ncc(-c5ccc(F)cc5)c4O)cc3)c2nc1OC [Compound 235] ?
Ans. > 7.00

Qu. What measured pIC50 goes with COc1cc2nccc(Oc3ccc(NC(=O)c4cn(-c5ccccn5)cc(-c5ccc(F)cc5)c4=O)cc3F)c2nc1OC [Compound 124] ?
Ans. < 6.52

Qu. What measured pIC50 goes with CCn1cc(C(=O)Nc2ccc(Oc3ccnc4cc(OC)ccc34)c(F)c2)c(=O)c(-c2ccc(F)cc2)c1C [Compound 107] ?
Ans. < 6.52

Qu. What measured pIC50 goes with COc1cc2nccc(Oc3ccc(NC(=O)c4cn(C(C)C)cc(-c5ccc(F)cc5)c4=O)cc3)c2nc1OC [Compound 122] ?
Ans. > 7.00

Qu. What measured pIC50 goes with Cc1ccc(C(=O)Nc2ccc(Oc3ccnc4cccnc34)c(F)c2)c(=O)n1-c1ccc(F)cc1 [Compound 302] ?
Ans. < 6.52

Qu. What measured pIC50 goes with COc1ccc2nccc(Oc3ccc(NC(=O)c4cccn(-c5ccc(F)cc5)c4=O)cc3F)c2n1 [Compound 292] ?
Ans. < 6.52

Qu. What measured pIC50 goes with COc1cc2nccc(Oc3ccc(NC(=O)c4cnc(C(C)(C)C)c(-c5ccc(F)cc5)c4O)cc3F)c2nc1OC [Compound 155] ?
Ans. < 6.52
